Test system: SR
run.description: NCI tumour cell line growth inhibition, 48 h
Calls of active or inactive are those of the source. Rule as the data show it: active = GI50 up to about 1.1 µM and inactive = higher.
Lab note: assign the record to one of active, inactive

*Q* GET /call?item= CCCCCCCCCCCC1CC(=O)NCCCN(C)CCCCN(C)CCCN1C (stereo unspecified) returns the recorded outcome of this test.
*A* active

*Q* For CC1(CCC2C=CCC2)CCCNC1=S (stereo unspecified) , which call appears in the assay record?
*A* inactive

*Q* # fetch the recorded call for CCOc1ccccc1NC(=O)CCc1nnc(S)[nH]1 here
*A* inactive

*Q* # outcome recorded in this test, key = O=C(Oc1ccc(C(c2c(O)c3ccccc3oc2=O)c2c(O)c3ccccc3oc2=O)cc1)c1ccc(C(=O)c2ccccc2)cc1
*A* inactive

*Q* Field: outcome | Entry: Cc1ccnc(NC(=S)Nc2ccccc2Cl)c1
*A* inactive

*Q* What did the test return for COC(=O)C1(O)C(c2ccccc2)=NC2(C)CCCC21 (stereo unspecified) ?
*A* inactive
